settings: 323.15 K; 101.33 kPa; Liquid; Falling or rolling sphere viscometry
Flag rule - viscosity less than 6 mPa·s flags criterion met; the remaining entries get criterion not met.

Prompt: Say whether its viscosity is strictly beneath 6 mPa·s. Entry: CCCCCCCC(=O)[O-].CCCCCCCC[NH+](CCCCCCCC)CCCCCCCC [trioctylammonium octanoate]
Response: criterion not met

Prompt: Please determine if CCCC(=O)[O-].CCCCCC[NH+](CCCCCC)CCCCCC [trihexylammonium butanoate] is below 6 mPa·s in terms of viscosity.
Response: criterion met

Prompt: Does CCCCCC(=O)[O-].CCCCCCCC[NH+](CCCCCCCC)CCCCCCCC [trioctylammonium hexanoate] have viscosity strictly under 6 mPa·s?
Response: criterion not met

Prompt: A record lists CCCCCC(=O)[O-].CCCCCC[NH+](CCCCCC)CCCCCC [trihexylammonium hexanoate] . Is its viscosity below 6 mPa·s?
Response: criterion met

Prompt: Quick check: does CCCC(=O)[O-].CCCCCCCC[NH+](CCCCCCCC)CCCCCCCC [trioctylammonium butanoate] have viscosity under 6 mPa·s?
Response: criterion not met

Recorded values, source the NIST ThermoML archive (doi:10.1016/j.jct.2019.02.015).
